Entry source: ChEMBL document CHEMBL1157539

# Tested on: Plasmodium falciparum
# EXPERIMENT_DESCRIPTION: GSK_TCMDC: Inhibition of Plasmodium falciparum Dd2 in whole red blood cells, using parasite LDH activity as an index of growth. Test compounds present at 2uM
# Assay type: functional
Property: Inhibition; scope: individual compounds
Give your result in % as a bare value.

Solved cases below.
COMPOUND: CCC1(CC)C(=O)N=C(N2CCCCC2)N(C)C1=O
READOUT_NUMBER: 66
//
COMPOUND: COc1ccc(CNCc2cccc(-c3ccc(-c4nc5cccc(C)c5[nH]4)cc3)c2)cc1.O=C(O)C(F)(F)F
READOUT_NUMBER: 70
//
COMPOUND: COc1cc2ncnc(Nc3ccc(OCc4ccccc4)c(I)c3)c2cc1OC.Cl
READOUT_NUMBER: 62
//
COMPOUND: O=C(CNC(=O)c1ccc(O)cc1)Nc1ccc(-c2cccc(-c3nc4cc(C(F)(F)F)ccc4[nH]3)c2)cc1
READOUT_NUMBER: 47
//
COMPOUND: CCCN(CCC)C(=O)c1cc(-c2cccc(C)c2)nc2ccccc12
READOUT_NUMBER: 59

I looked up `COc1cc(C=C(C2=NC(=O)CS2)c2nc3cccnc3n2C)ccc1O` and its Inhibition for Plasmodium falciparum was 48

I looked up `CC1(C)N=C(N)N=C(N)N1OCCCc1ccccc1.Cl` and its Inhibition for Plasmodium falciparum was 94

I looked up Cc1cc(NC2CCN(CC3CCCCC3)C2)nc(Nc2ccc(Br)cc2)n1 (stereo not drawn) and its Inhibition for Plasmodium falciparum was 83

---

# Test system: Plasmodium falciparum
# EXPERIMENT_DESCRIPTION: GSK_TCMDC: Inhibition of Plasmodium falciparum Dd2 in whole red blood cells, using parasite LDH activity as an index of growth. Test compounds present at 2uM
# Format: functional
Property: Inhibition; scope: individual molecules
Give your result in % as a bare value.

Solved cases below.
MOLECULE: c1ccc(-c2nc(Nc3nc4ccccc4[nH]3)[nH]c2-c2ccccc2)cc1
TARGET_OF_ASSAY: Plasmodium falciparum
Inhibition (%): 61
//
MOLECULE: CCN(CC)CCCCOc1ccc2c(c1)C(=O)c1cc(OCCCCN(CC)CC)ccc1-2.Cl
TARGET_OF_ASSAY: Plasmodium falciparum
Inhibition (%): 44
//
MOLECULE: CN(C)CCOc1ccc2nc(-c3cccc(OCc4ccccc4)c3)[nH]c2c1C#N
TARGET_OF_ASSAY: Plasmodium falciparum
Inhibition (%): 86
//
MOLECULE: CCC(O)(C#Cc1c(C)nc(N)nc1N)CC
TARGET_OF_ASSAY: Plasmodium falciparum
Inhibition (%): 0
//
MOLECULE: Cc1cc(N(C)C2CCN(CC3CCCCC3)C2)nc(Nc2ccc(Cl)cc2)n1 (stereo unspecified)
TARGET_OF_ASSAY: Plasmodium falciparum
Inhibition (%): 35

So for `O=C(NCCc1ccccc1)N(Cc1cccc(-c2ccc(CNCCc3ccccc3)cc2)c1)C1CCN(Cc2ccccc2)CC1.O=C(O)C(F)(F)F` , the logged Inhibition turned out to be 91

So for `Cc1[nH]c(C)c(-c2ccc(OCCCCSc3ccncc3)cc2)c(=O)c1Br` , the logged Inhibition turned out to be 97

So for `CN(CCCN(C)c1cc(NC(=O)c2ccc(F)cc2)ccn1)Cc1cccc(F)c1.O=C(O)C(F)(F)F` , the logged Inhibition turned out to be 60

So for `COc1ccc(C=NN=c2cc(C)[nH]c3ccc(C)cc23)c2ccccc12.Cl` , the logged Inhibition turned out to be 55

So for `CCCCc1cc(NCC)nc(Nc2ccc(F)cc2)n1` , the logged Inhibition turned out to be 56

So for OC(CNCc1ccccc1Oc1ccccc1)c1cc(Br)cs1 (stereo unspecified) , the logged Inhibition turned out to be 79

---

# System: Plasmodium falciparum
# EXPERIMENT_DESCRIPTION: GSK_TCMDC: Inhibition of Plasmodium falciparum 3D7 in whole red blood cells, using parasite LDH activity as an index of growth. Test compounds present at 2uM
# Format: functional
Property: Inhibition; scope: individual compounds
Give your result in % as a bare value.

Solved cases below.
COMPOUND: O=C(O)C(F)(F)F.O=S(=O)(NC1CCN(c2ccnc3cc(Cl)ccc23)C1)c1ccc(C(F)(F)F)cc1 (stereo unspecified)
READOUT_NAME: Inhibition
READOUT_NUMBER: 100
--
COMPOUND: CC(Cc1ccc(NC(=O)COc2ccc(CC(C)NCCc3cccc(Cl)c3)cc2)cc1)NCCc1cccc(Cl)c1 (stereo unspecified)
READOUT_NAME: Inhibition
READOUT_NUMBER: 100

So for O=C(Nc1ccc(OC2CCN(Cc3ccc(F)cc3)C2)c(Cl)c1)c1ccccc1.O=C(O)C(F)(F)F (stereo unspecified) , the logged Inhibition turned out to be 91

So for `C=CCc1cc(Br)ccc1OCCCOc1c(N)nc(N)nc1N.Cl` , the logged Inhibition turned out to be 92

So for `Cc1cc(N[C@@H](Cc2ccccc2)C(=O)Nc2ccccc2)nc(NCC2CCCCC2)n1.O=C(O)C(F)(F)F` , the logged Inhibition turned out to be 98

So for CC(C)CCNC(=O)C1Cc2c([nH]c3cc(Br)ccc23)C2(CCN(Cc3ccccc3)CC2)N1 (stereo unspecified) , the logged Inhibition turned out to be 96

So for `O=C(c1cc(-c2cccs2)n[nH]1)N1CCN(S(=O)(=O)c2ccc(Cl)s2)CC1` , the logged Inhibition turned out to be 84

So for `CCN(CC)CCN(Cc1ccc(-c2ccc(C(F)(F)F)cc2)cc1)C(=O)c1ccc(-c2ccc(NC(=O)OC)cc2C)cc1` , the logged Inhibition turned out to be 93

So for `CO/C(=C\C=C\c1cc2cc(Cl)c(Cl)cc2[nH]1)C(=O)NCCCN1CCN(c2cccc(OCC(=O)Nc3ccccc3)c2)CC1` , the logged Inhibition turned out to be 100

So for `CCN(CCCN1CCCCC1)c1cc(C)nc(Nc2cccc3c2CCCC3)n1.O=C(O)C(F)(F)F` , the logged Inhibition turned out to be 92

So for `CCOc1ccc2[nH]c(C)cc(=NN=Cc3ccccc3)c2c1` , the logged Inhibition turned out to be 96

So for `CCc1sc(-c2cc(Cl)ccc2OC)nc1C(=O)NCCN1CCCCC1.O=C(O)C(F)(F)F` , the logged Inhibition turned out to be 100

---

# System: HepG2
# EXPERIMENT_DESCRIPTION: GSK_TCMDC: Percent inhibition of human HepG2 cell line. Test compounds present at 10uM.
# Format: functional
READOUT_NAME: Inhibition (%)
Give your result in % as a bare value.

Solved cases below.
MOLECULE: CCN1CCN(c2ccc(Nc3ccnc4ccc(Br)cc34)cc2)CC1
READOUT_NAME: Inhibition
READOUT_NUMBER: 37

MOLECULE: Cc1cnc(N2CCN(CC3CCN(C)CC3)CC2)nc1Oc1ccc(-n2ccnc2)cc1.O=C(O)C(F)(F)F
READOUT_NAME: Inhibition
READOUT_NUMBER: 9

MOLECULE: COc1ccc(CCNCCCCCNCCc2ccc(Cl)cc2)cc1OC.Cl
READOUT_NAME: Inhibition
READOUT_NUMBER: 32

So for `CC(C)[C@H](NC(=O)c1ccc(O)c(-c2ccc(Cl)c(Cl)c2)c1)C(=O)NCCN1CCCCC1` , the logged Inhibition turned out to be 0

So for CC(=O)C1=NN(c2ccc(Cl)cc2)C(c2cccs2)N1c1ccccc1 (stereo unspecified) , the logged Inhibition turned out to be 0

So for `O=C1Nc2ccc3ncccc3c2/C1=C/Nc1ccc(Cn2ccnc2)cc1` , the logged Inhibition turned out to be 33

So for `Cc1[nH]c2ccccc2c1CC1CCN(CC2CCN(C(=O)/C=C/c3ccc(Cl)c(Cl)c3)CC2)CC1` , the logged Inhibition turned out to be 34

So for `N#Cc1ccc(N2CCN(C(=O)c3cccc(-c4noc(C(F)(F)F)n4)c3)CC2)nc1` , the logged Inhibition turned out to be 18

---

# Test system: Plasmodium falciparum
# EXPERIMENT_DESCRIPTION: GSK_TCMDC: Inhibition of Plasmodium falciparum 3D7 in whole red blood cells, using parasite LDH activity as an index of growth. Test compounds present at 2uM
# Assay type: functional
READOUT_NAME: Inhibition (%)
Give your result in % as a bare value.

Solved cases below.
COMPOUND_SMILES: COc1cccc(C(C)(C)NC[C@@H](O)[C@H](Cc2ccccc2)NC(=O)c2cc(C3CCCC3)cc(N3CCCCS3(=O)=O)c2F)c1.O=CO
UNIT_NAME: %
Inhibition: 99
//
COMPOUND_SMILES: Cc1cccc2nc(-c3cccc(-c4ccc(CNCc5ccc(S(C)(=O)=O)cc5)cc4)c3)[nH]c12.O=C(O)C(F)(F)F
UNIT_NAME: %
Inhibition: 100

So for `O=C(CCc1c[nH]cn1)Nc1cccc(-c2cccc(-c3nc4ccccc4[nH]3)c2)c1` , the logged Inhibition turned out to be 100

So for `C[C@H]1CN(Cc2cccc(-c3cc(CNC(=O)c4cccc(C(=O)c5ccc(Cl)c(Cl)c5)c4)ccc3F)c2)CCN1` , the logged Inhibition turned out to be 85

So for `O=C(CSc1cccc[n+]1[O-])c1ccc(Cc2ncc(C(F)(F)F)cc2Cl)s1` , the logged Inhibition turned out to be 99
